# EXPERIMENTAL PROTOCOL: Cytotoxicity colorimetric assay, NIH/3T3
# Format: cell-based, mouse
# CONDITION: mouse, NIH/3T3 cells, one hour in serum-free media
Starred links: 1 amine or outer side, 2 acyl side, 3 side chain; linkers in the order of their positions; H or OH if unused. Non-standard residues stand in square brackets, D forms with d. Residues, ends and D or L forms follow the SMILES beside them. *: point of attachment. NH(3-CONH2-4-OMe-phenyl) = COc1ccc(N*)cc1C(N)=O; 3Abz(6-OMe) = COc1ccc(N[*:1])cc1C(=O)[*:2]; X1 = O=C(O)COc1ccc(N[*:1])cc1C(=O)[*:2]

{"COMPOUND": "COc1ccc(NC(=O)[C@H](CCCCN)NC(=O)c2cc(NC(=O)[C@H](CCCCN)NC(=O)c3cc(NC(=O)[C@H](CCCCN)NC(=O)c4cc(NC(=O)[C@H](CCCCN)NC(=O)[C@@H](N)Cc5c[nH]c6ccccc56)ccc4OC)ccc3OC)ccc2OCC(=O)O)cc1C(N)=O [Compound 352] (H-WK[3Abz(6-OMe)]K[3Abz(6-OMe)]K[X1]K-{NH(3-CONH2-4-OMe-phenyl)})", "EC50 at 1 h": "> 1000 µg/mL"}
{"COMPOUND": "COc1cc(OC)c(C(=O)N[C@H]2CC[C@@H](NC(=O)c3cc(C(=O)N[C@H]4CC[C@@H](NC(=O)c5cc(C(=O)NCCCN)c(OC)cc5OC)CC4)c(OC)cc3OC)CC2)cc1C(=O)NCCCN [Compound 404]", "EC50 at 1 h": "1100 µg/mL"}
{"COMPOUND": "COc1cc(OC)c(C(=O)N[C@H]2CC[C@H](NC(=O)c3cc(C(=O)N[C@H]4CC[C@H](NC(=O)c5cc(C(=O)NCCN)c(OC)cc5OC)CC4)ncn3)CC2)cc1C(=O)NCCN [Compound 402]", "EC50 at 1 h": "753 µg/mL"}
{"COMPOUND": "COc1ccc(NC(=O)[C@H](CCCCN)NC(=O)c2cc(NC(=O)[C@H](CCCCN)NC(=O)c3cc(NC(=O)[C@H](CCCCN)NC(=O)c4cc(NC(=O)[C@H](CCCCN)NC(=O)c5ccccc5)ccc4OC)ccc3OC)ccc2OC)cc1C(N)=O [Compound 353]", "EC50 at 1 h": "~100 µg/mL"}

* * *

# System: isolated human erythrocytes
# EXPERIMENTAL PROTOCOL: cells
# Assay type: cell-based
# CONDITION: Homo sapiens, Erythrocyte, 1 h, human RBC, 1 hour at 37° C.; read-out: Hemolysis EC50

{"MOLECULE": "COc1ccc(NC(=O)[C@@H](CCCNC(=N)N)NC(=O)c2cc(NC(=O)[C@@H](CCCNC(=N)N)NC(=O)c3cc(NC(=O)[C@@H](CCCNC(=N)N)NC(=O)c4cc(NC(=O)[C@H](N)Cc5c[nH]c6ccccc56)ccc4OC)ccc3OC)ccc2OCC(=O)O)cc1C(N)=O [Compound 329]", "ASSAYED SYSTEM": "isolated human erythrocytes", "EC50": "18 µg/mL"}
{"MOLECULE": "COc1ccc(NC(=O)[C@@H](CCCNC(=N)N)NC(=O)c2cc(NC(=O)[C@@H](CCCNC(=N)N)NC(=O)c3cc(NC(=O)[C@@H](CCCNC(=N)N)NC(=O)c4cc(NC(C)=O)ccc4OC)ccc3OCC(=O)O)ccc2OC)cc1C(=O)N[C@H](Cc1c[nH]c2ccccc12)C(N)=O [Compound 308]", "ASSAYED SYSTEM": "isolated human erythrocytes", "EC50": "~500 µg/mL"}
{"MOLECULE": "COc1ccc(NC(=O)[C@H](CCCCN)NC(=O)c2cc(NC(=O)[C@H](CCCCN)NC(=O)c3cc(NC(=O)[C@H](CCCCN)NC(=O)c4cc(NC(=O)[C@@H](N)Cc5c[nH]c6ccccc56)ccc4OC)ccc3OC)ccc2OC)cc1C(N)=O [Compound 246]", "ASSAYED SYSTEM": "isolated human erythrocytes", "EC50": "> 1000 µg/mL"}
{"MOLECULE": "COc1cc(OC)c(C(=O)N[C@H]2CC[C@H](NC(=O)c3cc(C(=O)N[C@H]4CC[C@H](NC(=O)c5cc(C(=O)NCCN)c(OC)cc5OC)CC4)ncn3)CC2)cc1C(=O)NCCN [Compound 402]", "ASSAYED SYSTEM": "isolated human erythrocytes", "EC50": "> 1000 µg/mL"}
